test system: SW-620 colon; assay: NCI-60 one-dose screen, 48 h; details: 10 µM unless noted
This is part of a sample that, as a whole, favours compounds with a hit. Of some 83,000 tested, about 20% had one in any assay. Activity calls are given as the source filed them. The calls were made as follows: active = growth percent below 10; inactive = the rest.
Result category, one only: t (active), f (inactive)

stdin: Recorded test outcome, item `CCSC(SCC)c1ccc(Cl)cc1`
stdout: f

stdin: Recorded test outcome, item `O=c1[nH]c(Cc2nc3ccccc3s2)nc2cc(Br)ccc12`
stdout: f

stdin: Recorded test outcome, item `C1CN(SSN2CCOCC2)CCO1`
stdout: t

stdin: Recorded test outcome, item `Nc1cnc(C(=O)NNc2nc3cc(F)ccc3n3cccc23)cn1`
stdout: f

stdin: Recorded test outcome, item `COC(=O)/C=C1/SC(=Nc2ccc(C(F)(F)F)cc2)N(CCc2c[nH]c3ccc(O)cc23)C1=O`
stdout: t

stdin: Recorded test outcome, item `O=C1/C(=C\c2ccc3nccnc3c2)SC(=S)N1CCc1ccc(O)cc1`
stdout: f

stdin: Recorded test outcome, item `Cn1cc(-c2ccc3nc(-c4ccc(CC(=O)ONc5cc(C(C)(C)C)on5)cc4)cnc3c2)cn1`
stdout: f

stdin: Recorded test outcome, item `NC(=O)c1c(NC(=O)c2ccc3ccccc3c2)sc2c1CCC(=O)C2`
stdout: f

stdin: Recorded test outcome, item `COC(=O)c1nc(-c2ccc(C)cc2)oc1S(=O)(=O)c1cccc(OC)c1`
stdout: f

stdin: Recorded test outcome, item `Cc1cc(N2CCN(CC(=O)Nc3ccc4c(ccn4C)c3)CC2)nc(N2CCCCCC2)n1`
stdout: f

stdin: Recorded test outcome, item `C/C(=N\O)c1ccc(Cl)cc1`
stdout: f

Data credit: PubChem BioAssay (NCI)
